Biological target: serotonin transporter (Rattus norvegicus)
Construct: displace ^3H-paroxetine from male rat cortical membranes; from tissue; host or cells: male rat cortical membranes
Sequence (P31652 whole entry): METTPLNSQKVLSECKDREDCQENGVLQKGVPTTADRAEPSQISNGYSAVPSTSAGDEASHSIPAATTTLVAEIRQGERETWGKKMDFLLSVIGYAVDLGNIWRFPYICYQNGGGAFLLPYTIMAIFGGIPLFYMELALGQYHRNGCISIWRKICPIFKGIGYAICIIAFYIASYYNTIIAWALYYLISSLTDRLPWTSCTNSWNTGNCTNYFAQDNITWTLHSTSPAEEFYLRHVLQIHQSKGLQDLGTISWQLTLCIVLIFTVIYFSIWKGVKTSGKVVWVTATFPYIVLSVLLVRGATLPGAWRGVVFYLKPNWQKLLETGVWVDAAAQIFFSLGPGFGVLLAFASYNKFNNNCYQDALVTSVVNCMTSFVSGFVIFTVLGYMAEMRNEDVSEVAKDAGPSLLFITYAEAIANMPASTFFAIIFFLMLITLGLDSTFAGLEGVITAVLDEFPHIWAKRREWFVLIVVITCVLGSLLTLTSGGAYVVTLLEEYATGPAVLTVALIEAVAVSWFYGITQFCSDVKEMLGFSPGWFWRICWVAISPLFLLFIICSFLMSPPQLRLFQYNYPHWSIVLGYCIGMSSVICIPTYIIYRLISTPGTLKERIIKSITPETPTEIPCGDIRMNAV
Test: 5-HT transporter affinity: displacement of 3H-paroxetine from male rat cortical membranes
Assay type: binding
Settings: displacement of 3H-paroxetine; male rat cortical membranes; read-out: 5-HT Transporter Affinity Ki
Please go through the items and note down their pKi.
Please treat pKi as minus the base-10 logarithm of the molar concentration.

Report measured pKi; entry is NC(=O)c1ccc(F)c2c1OCC(N(CCCCc1c[nH]c3ccc(F)cc13)CC1CC1)C2 (stereo not drawn) [Compound 125] 8.17

Report measured pKi; entry is CNC(=O)c1ccc(F)c2c1CC(NCCCCc1c[nH]c3ccc(F)cc13)CO2 (stereo not drawn) [Compound 92] 8.10

Report measured pKi; entry is CCCN(C(C)CCc1c[nH]c2ccc(C#N)cc12)C1COc2c(F)ccc(C(N)=O)c2C1 (single isomer, unassigned) [Compound 13d] 6.95

Report measured pKi; entry is NC(=O)c1ccc(F)c2c1CC(N(CCCCc1c[nH]c3ccc(F)cc13)CC1CC1)CO2 (stereo not drawn) [Compound 82] 8.45

Report measured pKi; entry is CNC(=O)c1ccc(F)c2c1CC(N(CCc1c[nH]c3ccc(F)cc13)CC1CC1)CO2 (stereo not drawn) [Compound 86] 7.15

Report measured pKi; entry is CCN(CCCCn1ccc2c(F)cccc21)C1COc2c(F)ccc(C(N)=O)c2C1 (stereo not drawn) [Compound 201] 7.02

Report measured pKi; entry is CCCN(CCCc1c[nH]c2ccc(F)cc12)C1COc2c(F)ccc(C(=O)NC)c2C1 (stereo not drawn) [Compound 90] 8.47

Report measured pKi; entry is COc1cccc2c(CCCCN(C3CCC3)C3COc4c(F)ccc(C(N)=O)c4C3)coc12 (stereo not drawn) [Compound 171] 4.95

Report measured pKi; entry is CC(Cc1c[nH]c2ccc(F)cc12)CN(CC1CC1)[C@H]1COc2c(F)ccc(C(N)=O)c2C1 (single isomer, unassigned) [Compound 155b] 6.84

Report measured pKi; entry is NC(=O)c1ccc(F)c2c1CC(N(CCCc1c[nH]c3cc(F)ccc13)CC1CC1)CO2 (stereo not drawn) [Compound 52a] 6.79

Report measured pKi; entry is COc1cccc2c(CCN(C3CCC3)C3COc4c(F)ccc(C(N)=O)c4C3)coc12 (stereo not drawn) [Compound 159] 6.83

Report measured pKi; entry is CC(CCc1c[nH]c2c(F)cc(F)cc12)N(CC1CC1)C1COc2c(F)ccc(C(N)=O)c2C1 (single isomer, unassigned) [Compound 154b] 6.66

Report measured pKi; entry is O=C(Nc1ccccc1)c1ccc(F)c2c1CC(N(CCCc1c[nH]c3ccc(F)cc13)C1CCC1)CO2 (stereo not drawn) [Compound 70] 7.43

Report measured pKi; entry is NC(=O)c1ccc(F)c2c1CC(N(CCc1c[nH]c3ccc(F)cc13)CC1CC1)CO2 (stereo not drawn) [Compound 78] 7.08

Report measured pKi; entry is CCCN(C(C)CCc1c[nH]c2ccc(F)cc12)C1COc2c(F)ccc(C(N)=O)c2C1 (single isomer, unassigned) [Compound 12a] 7.66

----------
Please go through the items and note down their melting point.
Counter-ions that a name gives are not always drawn.

Report measured melting point; entry is CCCN(CCCc1c[nH]c2c(Cl)cccc12)C1COc2c(F)ccc(C(N)=O)c2C1 (stereo not drawn) (as salt: hydrochloride) 145 to 154 °C (dec.)

Report measured melting point; entry is CCCN(CCCCc1c[nH]c2ccc(F)cc12)C1COc2c(F)ccc(C(N)=O)c2C1 (stereo not drawn) (as salt: hydrochloride) 115 °C (dec.)

Report measured melting point; entry is O=C(NCc1ccccc1)c1ccc(F)c2c1CC(N(CCCc1c[nH]c3ccc(F)cc13)C1CCC1)CO2 (stereo not drawn) (as salt: hydrochloride) 124 °C (dec.)

All values here come from patent US20050032873A1.
